- PROTOCOL SUMMARY: qHTS of small molecules that selectively kill Giardia lamblia: Hit Validation.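 Note: viability measured as ATP content by luminescence so killing lowers signal; potency is the fitted concentration of half-maximal effect; trophozoites exposed to compounds for 48 h anaerobically at 37 °C; nearly all actives have a fitted effect of over 65% in size.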
- PROTOCOL CONDITIONS: Giardia lamblia trophozoite viability, dose-response; series mostly up to 38.3 µM
- Method: Giardia lamblia is a human pathogen afflicting impoverished nations, and the most common cause of outbreaks of diarrhea in the United States. Giardia has been classified by the CDC as a category B bioterrorism organism. The favored anti giardiasis drugs in the US are metronidazole or tinidazole, compounds that have undesirable side effects. […] 5. Dispense 4 ul/well ATPLite 1-Step Luminescence assay kit […] 7. Read luminescence signal on ViewLux plate reader
The whole screen tested about 1,300 compounds, of which about 1,000 (77%) were called active. Another 7% or so got no clear call; they are omitted. The set was probably picked from earlier hits. The list shows a part of the results.
REPORTED PROPERTY: Potency

Past entries and their recorded results:
[
  {
    "CHEM SMILES": "CC1=C(C(=O)Nc2ccc(CC(=O)NCc3ccc(OC(C)C)cc3)cc2)SCCO1",
    "TEST VALUE": "4100 nM (active)"
  },
  {
    "CHEM SMILES": "CCCOc1ccc(CCC(=O)N/N=C/c2ccc([N+](=O)[O-])o2)cc1",
    "TEST VALUE": "729 nM (active)"
  },
  {
    "CHEM SMILES": "S=C(NCCc1ccccc1)N/N=C/c1cccs1",
    "TEST VALUE": "23100 nM (active)"
  }
]

[in] Identify the reported Potency for the following entry. "COc1ccc(NC(=O)c2ccc([N+](=O)[O-])o2)cc1"
[out] 1030 nM (active)

[in] Given "Cc1cc(=O)oc2cc(O)c(N=Nc3ccccc3)cc12" , respond with its Potency.
[out] 1030 nM (active)

[in] Dear colleague, please send me the reported Potency for "O=C(COc1cccnc1[N+](=O)[O-])Nc1ncc(Cl)cc1Cl" when you can.
[out] 4600 nM (active)
